biological target: HLA A*6802 (Homo sapiens, UniProt P04439, A269V/D140Y/D185E/E176V/E277Q/E87N/F33Y/G231S/I121R/I166T/I218V/L180W/L300P/L318F/N151K/P208A/P217A/Q86R/R138H/R169H/S129P/T345S/V36M); type: binding
Assign classes using reported Normalized average relative binding affinity(ARB) values and the ranges low (below 0.2), moderate (0.2 to below 0.4), high (0.4 or more), please.

Worked examples, 10 sequences total:
# SEQUENCE ENTRY, DISCRETE LABEL
records = [
    ("XXXXXWXXX [3064.0119]", "high"),
    ("XXXXXQXXX [3064.0114]", "low"),
    ("XXXXXXXEX [3064.0144]", "low"),
    ("XXXXXXMXX [3064.0131]", "high"),
    ("XXXPXXXXX [3064.0073]", "moderate"),
    ("XXXXXXXWX [3064.0159]", "low"),
    ("XXXXXXPXX [3064.0133]", "moderate"),
    ("XXXXKXXXX [3064.0089]", "low"),
    ("XXXXXXXMX [3064.0151]", "low"),
    ("XXXXXXXGX [3064.0146]", "moderate"),
]

Kindly review the next sequence as well.
Which bin, given its Normalized average relative binding affinity(ARB), does XXXXXXXSX [3064.0156] occupy? moderate
